I'd appreciate it if you could supply IC50 values for the items below.
- TEST SYSTEM: α4β7 integrin binding to human MAdCAM-1-Ig (Homo sapiens, UniProt P13612+P26010)
- Construct: endogenous in cells
- Sequence (P13612 34-1032): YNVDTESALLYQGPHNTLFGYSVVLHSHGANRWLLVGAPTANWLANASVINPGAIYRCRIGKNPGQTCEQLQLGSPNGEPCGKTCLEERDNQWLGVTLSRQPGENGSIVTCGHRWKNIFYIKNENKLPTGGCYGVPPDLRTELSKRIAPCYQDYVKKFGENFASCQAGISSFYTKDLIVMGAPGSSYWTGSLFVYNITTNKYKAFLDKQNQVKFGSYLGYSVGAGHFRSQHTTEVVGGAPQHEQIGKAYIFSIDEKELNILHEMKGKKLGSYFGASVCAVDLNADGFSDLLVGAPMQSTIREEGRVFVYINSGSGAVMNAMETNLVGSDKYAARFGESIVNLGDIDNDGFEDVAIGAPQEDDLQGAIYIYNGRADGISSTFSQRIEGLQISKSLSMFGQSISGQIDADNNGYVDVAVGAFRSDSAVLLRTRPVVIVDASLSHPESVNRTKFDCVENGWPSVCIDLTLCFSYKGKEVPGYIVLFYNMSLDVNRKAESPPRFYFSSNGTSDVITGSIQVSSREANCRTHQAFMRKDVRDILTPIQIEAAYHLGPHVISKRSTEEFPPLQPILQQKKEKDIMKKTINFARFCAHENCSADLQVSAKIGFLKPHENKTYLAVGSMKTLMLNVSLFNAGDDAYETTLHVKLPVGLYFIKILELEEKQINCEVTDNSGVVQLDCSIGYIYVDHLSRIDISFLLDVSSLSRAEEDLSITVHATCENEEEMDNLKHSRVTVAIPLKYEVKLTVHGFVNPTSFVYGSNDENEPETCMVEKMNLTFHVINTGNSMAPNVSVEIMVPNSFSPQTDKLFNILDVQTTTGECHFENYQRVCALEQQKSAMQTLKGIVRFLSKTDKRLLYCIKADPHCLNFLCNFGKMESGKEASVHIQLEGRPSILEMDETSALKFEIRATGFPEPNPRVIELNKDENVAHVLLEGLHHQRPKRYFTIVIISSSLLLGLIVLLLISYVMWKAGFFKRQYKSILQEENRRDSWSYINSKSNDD
- Sequence (P26010 20-798): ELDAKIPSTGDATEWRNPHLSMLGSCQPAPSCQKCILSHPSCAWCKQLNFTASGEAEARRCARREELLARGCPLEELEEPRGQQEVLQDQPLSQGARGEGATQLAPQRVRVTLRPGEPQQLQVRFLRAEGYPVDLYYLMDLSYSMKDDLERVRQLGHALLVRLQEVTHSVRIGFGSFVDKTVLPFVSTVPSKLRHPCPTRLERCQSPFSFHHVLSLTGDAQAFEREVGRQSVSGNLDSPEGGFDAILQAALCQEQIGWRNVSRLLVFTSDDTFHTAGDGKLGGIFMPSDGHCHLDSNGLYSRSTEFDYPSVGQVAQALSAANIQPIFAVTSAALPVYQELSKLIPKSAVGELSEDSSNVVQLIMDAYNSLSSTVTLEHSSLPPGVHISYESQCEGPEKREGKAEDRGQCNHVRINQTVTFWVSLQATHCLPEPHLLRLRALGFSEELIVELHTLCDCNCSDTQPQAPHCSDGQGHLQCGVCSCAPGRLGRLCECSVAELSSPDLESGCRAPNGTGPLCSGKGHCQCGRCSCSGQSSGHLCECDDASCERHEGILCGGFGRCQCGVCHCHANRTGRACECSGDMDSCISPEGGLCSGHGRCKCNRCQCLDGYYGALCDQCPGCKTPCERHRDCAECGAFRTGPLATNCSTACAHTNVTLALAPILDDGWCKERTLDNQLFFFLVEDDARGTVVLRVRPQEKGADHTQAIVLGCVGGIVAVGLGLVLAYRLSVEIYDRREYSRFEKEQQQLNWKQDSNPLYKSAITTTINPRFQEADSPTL
- ASSAY NAME: Adhesion inhibition assay (BCEF-labeled RPMI 8866 cells on huMAdCAM-1-Ig coated plates)
One number for each entry, in nM.

Would you please look over these solved cases?
CHEM SMILES | TEST SYSTEM | QUANTITY NAME | QUANTITY UNIT | RECORDED NUMBER
O=C1NC(=O)N(c2ccccc2Cl)C(=O)/C1=C\c1c[nH]c2ccccc12 | α4β7 integrin binding to human MAdCAM-1-Ig (Homo sapiens, UniProt P13612+P26010) | IC50 | nM | 2500
O=C1NC(=O)N(c2cccc3ccccc23)C(=O)/C1=C\c1c[nH]c2ccccc12 | α4β7 integrin binding to human MAdCAM-1-Ig (Homo sapiens, UniProt P13612+P26010) | IC50 | nM | 410
Cn1cc(/C=C2/C(=O)NC(=O)N(c3cccc4ccccc34)C2=O)c2ccccc21 | α4β7 integrin binding to human MAdCAM-1-Ig (Homo sapiens, UniProt P13612+P26010) | IC50 | nM | 940

Next compound, IC50 to be filled in.
// returns reported IC50 for input Cc1ccccc1N1C(=O)NC(=O)/C(=C/c2cn(C)c3ccccc23)C1=O 2300
